target: UniProt P43116; test: hEP2 flipr functional assay; type: cell-based; details: the 3rd table; read-out: EP2 data flipr EC50
reported.metric: log10 of EC50 (log10 of the value in nM)

molecule: O=C(O)c1ccc(CCC[C@@H]2[C@@H](COc3cccc4ccccc34)[C@H](O)C[C@H]2Cl)s1
log10 of EC50: 2.98
--
molecule: CCc1cc(OC[C@@H]2[C@@H](CCCc3ccc(C(=O)O)s3)[C@H](Cl)C[C@H]2O)ccc1Cl
log10 of EC50: 4.50
--
molecule: O=C(O)c1ccc(CCC[C@@H]2[C@@H](COc3cc(F)cc(F)c3)[C@H](O)C[C@H]2Cl)s1
log10 of EC50: 2.33
--
molecule: O=C(O)c1ccc(CCC[C@@H]2[C@@H](COc3ccccc3)[C@H](O)C[C@H]2Cl)s1
log10 of EC50: 2.37
--
molecule: O=C(O)c1ccc(CCC[C@@H]2[C@@H](COc3ccc(Cl)c4ccccc34)[C@H](O)C[C@H]2Cl)s1
log10 of EC50: 3.55
--
molecule: CCc1cccc(OC[C@@H]2[C@@H](CCCc3ccc(C(=O)O)s3)[C@H](Cl)C[C@H]2O)c1
log10 of EC50: 2.65
--
molecule: O=C(O)c1ccc(CCC[C@@H]2[C@@H](COc3cccc4c3CCCC4)[C@H](O)C[C@H]2Cl)s1
log10 of EC50: 2.24
--
molecule: CCCc1cccc(OC[C@@H]2[C@@H](CCCc3ccc(C(=O)O)s3)[C@H](Cl)C[C@H]2O)c1
log10 of EC50: 1.52
--
molecule: O=C(O)c1ccc(CCC[C@@H]2[C@@H](COc3cc(F)cc(C(F)(F)F)c3)[C@H](O)C[C@H]2Cl)s1
log10 of EC50: 3.06
--
molecule: CCCCCCCc1ccc(OC[C@@H]2[C@@H](CCCc3ccc(C(=O)O)s3)[C@H](Cl)C[C@H]2O)cc1
log10 of EC50: 3.83
--
molecule: Cc1cc(OC[C@@H]2[C@@H](CCCc3ccc(C(=O)O)s3)[C@H](Cl)C[C@H]2O)cc(C)c1Cl
log10 of EC50: 3.17
--
molecule: O=C(O)c1ccc(CCC[C@@H]2[C@@H](COc3ccc4c(c3)CCCC4)[C@H](O)C[C@H]2Cl)s1
log10 of EC50: 3.40

---

molecular target: UniProt:P35408; assay: hEP4 flipr functional assay; format: cell-based; conditions: the 3rd table; read-out: EP4 data flipr EC50
Note to self: EC50 under 8 µM means Criterion met, ties and anything higher get Criterion not met.

molecule: O=C(O)c1ccc(CCC[C@@H]2[C@@H](COc3cccc4ccccc34)[C@H](O)C[C@H]2Cl)s1
category: Criterion not met
--
molecule: O=C(O)c1ccc(CCC[C@@H]2[C@@H](COc3ccc4c(c3)CCCC4)[C@H](O)C[C@H]2Cl)s1
category: Criterion not met
--
molecule: O=C(O)c1ccc(CCC[C@@H]2[C@@H](COc3ccc4ccccc4c3)[C@H](O)C[C@H]2Cl)s1
category: Criterion not met
--
molecule: CCCc1cccc(OC[C@@H]2[C@@H](CCCc3ccc(C(=O)O)s3)[C@H](Cl)C[C@H]2O)c1
category: Criterion not met
--
molecule: Cc1cc(OC[C@@H]2[C@@H](CCCc3ccc(C(=O)O)s3)[C@H](Cl)C[C@H]2O)cc(C)c1Cl
category: Criterion not met
--
molecule: CCCCCCCc1ccc(OC[C@@H]2[C@@H](CCCc3ccc(C(=O)O)s3)[C@H](Cl)C[C@H]2O)cc1
category: Criterion not met
--
molecule: CCc1cc(OC[C@@H]2[C@@H](CCCc3ccc(C(=O)O)s3)[C@H](Cl)C[C@H]2O)ccc1Cl
category: Criterion not met
--
molecule: O=C(O)c1ccc(CCC[C@@H]2[C@@H](COc3ccc(Cl)c4ccccc34)[C@H](O)C[C@H]2Cl)s1
category: Criterion not met
--
molecule: O=C(O)c1ccc(CCC[C@@H]2[C@@H](COc3cc(F)cc(F)c3)[C@H](O)C[C@H]2Cl)s1
category: Criterion met
--
molecule: O=C(O)c1ccc(CCC[C@@H]2[C@@H](COc3ccccc3)[C@H](O)C[C@H]2Cl)s1
category: Criterion not met
--
molecule: O=C(O)c1ccc(CCC[C@@H]2[C@@H](COc3cc(F)cc(C(F)(F)F)c3)[C@H](O)C[C@H]2Cl)s1
category: Criterion not met
--
molecule: O=C(O)c1ccc(CCC[C@@H]2[C@@H](COc3cccc4c3CCCC4)[C@H](O)C[C@H]2Cl)s1
category: Criterion not met
--
molecule: CCc1cccc(OC[C@@H]2[C@@H](CCCc3ccc(C(=O)O)s3)[C@H](Cl)C[C@H]2O)c1
category: Criterion met

---

Biological target: hEP3 (Homo sapiens)
Sequence (P43115 1-390): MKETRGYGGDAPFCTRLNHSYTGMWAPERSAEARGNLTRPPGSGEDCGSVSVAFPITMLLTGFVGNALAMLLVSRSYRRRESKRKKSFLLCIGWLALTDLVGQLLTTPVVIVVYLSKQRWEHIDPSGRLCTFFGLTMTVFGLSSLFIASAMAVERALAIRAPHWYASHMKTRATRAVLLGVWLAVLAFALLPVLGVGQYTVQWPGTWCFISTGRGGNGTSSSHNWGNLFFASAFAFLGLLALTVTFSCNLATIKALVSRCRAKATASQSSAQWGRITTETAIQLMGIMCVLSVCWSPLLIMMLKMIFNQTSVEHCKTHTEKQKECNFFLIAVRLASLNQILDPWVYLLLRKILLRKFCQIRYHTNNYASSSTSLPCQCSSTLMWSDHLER
Assay: Other receptors: hEP3 / hEP3A
Assay type: cell-based
Details: the 3rd table; read-out: Other Receptors (ED50 in nM) hEP3A

molecule: O=C(O)c1ccc(CCC[C@@H]2[C@@H](COc3ccccc3)[C@H](O)C[C@H]2Cl)s1
EC50 (nM): 9650
--
molecule: CCc1cccc(OC[C@@H]2[C@@H](CCCc3ccc(C(=O)O)s3)[C@H](Cl)C[C@H]2O)c1
EC50 (nM): 3570
--
molecule: O=C(O)c1ccc(CCC[C@@H]2[C@@H](COc3cc(F)cc(C(F)(F)F)c3)[C@H](O)C[C@H]2Cl)s1
EC50 (nM): 6820
--
molecule: O=C(O)c1ccc(CCC[C@@H]2[C@@H](COc3cccc4ccccc34)[C@H](O)C[C@H]2Cl)s1
EC50 (nM): 4030

---

target: hDP (Homo sapiens); assay: Other receptors: hDP; format: cell-based; details: the 2nd table; read-out: Other Receptors hDP
Sequence (Q13258 whole entry): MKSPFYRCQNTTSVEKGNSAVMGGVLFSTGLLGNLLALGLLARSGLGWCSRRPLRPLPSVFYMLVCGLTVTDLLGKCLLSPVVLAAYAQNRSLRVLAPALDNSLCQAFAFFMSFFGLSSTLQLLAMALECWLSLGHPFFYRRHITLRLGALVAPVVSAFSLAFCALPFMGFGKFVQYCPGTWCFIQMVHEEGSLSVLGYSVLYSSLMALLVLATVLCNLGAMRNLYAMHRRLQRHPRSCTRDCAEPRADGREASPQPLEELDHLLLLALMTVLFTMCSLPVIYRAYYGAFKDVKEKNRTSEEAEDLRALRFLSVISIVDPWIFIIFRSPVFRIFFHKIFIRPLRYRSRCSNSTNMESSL
pEC50: −log10 of the molar value.

molecule: O=C(O)CCC/C=C\C[C@@H]1[C@@H](COc2cc(Cl)cc(CCO)c2)[C@H](O)C[C@H]1Cl
pEC50: < 5.00

---

target: hEP2 (Homo sapiens, UniProt P43116); assay: hEP2 binding (Ki); settings: the 2nd table; read-out: hEP2 Ki
Sequence (P43116 whole entry): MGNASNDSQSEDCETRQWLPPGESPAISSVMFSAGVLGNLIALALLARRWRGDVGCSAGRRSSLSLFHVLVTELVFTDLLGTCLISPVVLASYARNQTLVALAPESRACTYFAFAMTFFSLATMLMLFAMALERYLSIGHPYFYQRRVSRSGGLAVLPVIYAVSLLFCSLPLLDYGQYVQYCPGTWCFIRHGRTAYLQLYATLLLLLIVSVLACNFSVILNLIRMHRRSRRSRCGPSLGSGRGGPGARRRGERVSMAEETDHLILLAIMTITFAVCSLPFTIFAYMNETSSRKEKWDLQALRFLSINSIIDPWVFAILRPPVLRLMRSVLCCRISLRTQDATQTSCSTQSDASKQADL
Reported Ki values for the following molecules.
reported.metric: Ki (µM)

molecule: O=C(O)c1ccc(CCC[C@@H]2[C@@H](COc3cc(Cl)cc(CO)c3)[C@H](O)C[C@H]2Cl)s1 [drawing 36]
unit: µM
test.result: 0.003

molecule: O=C(O)c1ccc(CCC[C@@H]2[C@@H](COc3cc(Cl)cc(Cl)c3)[C@H](O)C[C@H]2F)s1
unit: µM
test.result: 0.008

molecule: N#C[C@@H]1C[C@@H](O)[C@H](COc2cc(Cl)cc(Cl)c2)[C@H]1CCCc1ccc(C(=O)O)s1 [drawing 40]
unit: µM
test.result: 0.003

molecule: O=C(O)CCC/C=C\C[C@@H]1[C@@H](COc2cc(Cl)cc(CCO)c2)[C@H](O)C[C@H]1Cl
unit: µM
test.result: 0.107

molecule: O=C(O)c1ccc(CCC[C@@H]2[C@@H](COc3cc(Cl)cc(CO)c3)CC[C@H]2Cl)s1
unit: µM
test.result: 0.012

molecule: O=C(O)c1ccc(CCC[C@@H]2[C@@H](COc3cc(Cl)cc(Cl)c3)[C@H](O)C[C@H]2Cl)s1 [drawing 35]
unit: µM
test.result: 0.002

molecule: Cc1cc(C)cc(OC[C@@H]2[C@@H](CCCc3ccc(C(=O)O)s3)[C@H](Cl)C[C@H]2O)c1 [drawing 37]
unit: µM
test.result: 0.002

molecule: O=C(O)c1ccc(CCC[C@H]2C(=O)CC[C@@H]2COc2cc(Cl)cc(CO)c2)s1
unit: µM
test.result: 0.039

molecule: CC(=O)OCCc1cc(Cl)cc(OC[C@@H]2[C@@H](C/C=C\CCCC(=O)O)[C@H](Cl)C[C@H]2O)c1
unit: µM
test.result: 0.082

molecule: COCc1cc(Cl)cc(OC[C@@H]2[C@@H](C/C=C\CCCC(=O)O)[C@H](Cl)C[C@H]2O)c1
unit: µM
test.result: 0.039

---

Biological target: hEP4 (Homo sapiens, UniProt P35408)
Sequence (P35408 whole entry): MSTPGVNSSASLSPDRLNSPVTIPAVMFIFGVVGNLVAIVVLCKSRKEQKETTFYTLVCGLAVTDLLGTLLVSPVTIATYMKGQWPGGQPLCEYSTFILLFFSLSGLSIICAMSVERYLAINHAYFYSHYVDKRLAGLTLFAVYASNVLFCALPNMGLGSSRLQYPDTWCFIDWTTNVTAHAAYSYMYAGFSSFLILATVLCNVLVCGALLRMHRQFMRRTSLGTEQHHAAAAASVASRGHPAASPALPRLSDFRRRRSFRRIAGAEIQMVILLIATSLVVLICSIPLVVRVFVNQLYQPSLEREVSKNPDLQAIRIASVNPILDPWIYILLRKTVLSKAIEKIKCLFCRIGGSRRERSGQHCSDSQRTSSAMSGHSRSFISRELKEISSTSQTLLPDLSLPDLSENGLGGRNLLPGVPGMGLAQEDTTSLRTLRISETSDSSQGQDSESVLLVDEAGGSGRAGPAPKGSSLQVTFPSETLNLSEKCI
Experiment: hEP4 flipr functional assay
Assay type: cell-based
Conditions: the 2nd table; read-out: hEP4 flipr EC50
From the text: U.S. patent application Ser. No. 11/553,143, filed on Oct. 26, 2006, describes the methods used to obtain the in vitro data in the table below.
pEC50: −log10 of the molar value.
reported.metric: pEC50

compound: Cc1cc(C)cc(OC[C@@H]2[C@@H](CCCc3ccc(C(=O)O)s3)[C@H](Cl)C[C@H]2O)c1 [drawing 37]
test.result: 5.53
//
compound: O=C(O)c1ccc(CCC[C@H]2C(=O)CC[C@@H]2COc2cc(Cl)cc(CO)c2)s1
test.result: < 5.00
//
compound: O=C(O)c1ccc(CCC[C@@H]2[C@@H](COc3cc(Cl)cc(Cl)c3)[C@H](O)C[C@H]2Cl)s1 [drawing 35]
test.result: < 5.00
//
compound: O=C(O)c1ccc(CCC[C@@H]2[C@@H](COc3cc(Cl)cc(Cl)c3)[C@H](O)C[C@H]2F)s1
test.result: < 5.00
